# TEST_PROTOCOL: in vivo
# MEASUREMENT_SETUP: rat, po
ENDPOINT: LD50 at 480 h (mg/kg)
Answers are plain numbers, in mg/kg.

Query: Recall and state the measured LD50 at 480 h for Cn1c(=O)c2c(ncn2CC2SCCS2)n(C)c1=O .
Reply: 1840

---

# TEST_PROTOCOL: in vivo
# MEASUREMENT_SETUP: mouse, po
ENDPOINT: LD50 at 480 h (mg/kg)
Give bare numbers, in mg/kg.

Query: Recall and state the measured LD50 at 480 h for Cn1c(=O)c2c(ncn2CC2SCCS2)n(C)c1=O [COMPOUND 1] .
Reply: 1510
